Molecular target: 5-HT3 receptors in the heart (Rattus norvegicus, UniProt P35563)
Construct: from tissue; host or cells: living anesthetized male SD rats (in vivo)
Sequence (P35563 24-483): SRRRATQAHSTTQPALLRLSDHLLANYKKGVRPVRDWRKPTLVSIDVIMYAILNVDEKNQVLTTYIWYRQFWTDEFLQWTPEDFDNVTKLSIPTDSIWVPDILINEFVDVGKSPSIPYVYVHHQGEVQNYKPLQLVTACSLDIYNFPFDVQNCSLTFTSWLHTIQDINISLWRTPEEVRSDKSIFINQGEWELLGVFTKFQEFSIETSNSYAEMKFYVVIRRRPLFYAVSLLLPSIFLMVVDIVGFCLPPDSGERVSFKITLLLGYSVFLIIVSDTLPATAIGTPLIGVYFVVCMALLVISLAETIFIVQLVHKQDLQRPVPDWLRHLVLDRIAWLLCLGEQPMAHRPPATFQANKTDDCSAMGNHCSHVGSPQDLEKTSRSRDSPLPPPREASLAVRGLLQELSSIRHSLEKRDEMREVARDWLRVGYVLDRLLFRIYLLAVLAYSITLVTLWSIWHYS
Experiment: Antagonism against Von Bezold-Jarisch reflex (BJ reflex)
Type: in vivo, SD rats
Settings: iv, 5 min before serotonin 30 μg/kg, read-out: ID50 (the source's name)

# compound, ED50
data = [
    ("Cl.O=C(C1CCc2nc[nH]c2C1)N1CC(c2ccc(O)cc2)c2ccccc21 (centres unmarked)", "0.13 µg/kg"),
    ("Cl.O=C(C1CCc2nc[nH]c2C1)N1CC(c2ccccc2)c2ccccc21 (centres unmarked) [Compound 2]", "0.3 µg/kg"),
    ("Cl.O=C(C1CCc2nc[nH]c2C1)N1CC(c2ccccc2)c2ccccc21 (centres unmarked) [Compound 4, hydrochloride]", "0.00039 µmol/kg"),
    ("Cl.O=C(C1CCc2nc[nH]c2C1)N1CC(c2cccc(O)c2)c2ccccc21 (centres unmarked)", "0.15 µg/kg"),
    ("Cl.Cn1cc(C(=O)[C@@H]2CCc3nc[nH]c3C2)c2ccccc21 [YM-060, hydrochloride, reference compound]", "8.6e-05 µmol/kg"),
]

---

Experiment: Acute toxicity (oral)
Format: in vivo
Conditions: rat, in vivo, rats
measured attribute: LD50

# compound, measured attribute, result
measured = [
    ("Cl.O=C(C1CCc2nc[nH]c2C1)N1CC(c2ccccc2)c2ccccc21 (stereo not drawn) [Compound 4]", "LD50", "≥ 1000 mg/kg"),
    ("Cl.O=C(C1CCc2nc[nH]c2C1)N1CC(c2ccc(O)cc2)c2ccccc21 (stereo not drawn) [Compound 8]", "LD50", "≥ 1000 mg/kg"),
    ("Cl.O=C(C1CCc2nc[nH]c2C1)N1CC(c2cccc(O)c2)c2ccccc21 (stereo not drawn) [Compound 6]", "LD50", "≥ 1000 mg/kg"),
]

Origin of measurements: patent US5677326A
